- Test details: self-splicing fitness, log relative to wild type (ln ratio); higher = more splicing; Tetrahymena group I intron in knt gene, E. coli kanamycin selection, DiMSum; sequences stand for … in CUCUCU…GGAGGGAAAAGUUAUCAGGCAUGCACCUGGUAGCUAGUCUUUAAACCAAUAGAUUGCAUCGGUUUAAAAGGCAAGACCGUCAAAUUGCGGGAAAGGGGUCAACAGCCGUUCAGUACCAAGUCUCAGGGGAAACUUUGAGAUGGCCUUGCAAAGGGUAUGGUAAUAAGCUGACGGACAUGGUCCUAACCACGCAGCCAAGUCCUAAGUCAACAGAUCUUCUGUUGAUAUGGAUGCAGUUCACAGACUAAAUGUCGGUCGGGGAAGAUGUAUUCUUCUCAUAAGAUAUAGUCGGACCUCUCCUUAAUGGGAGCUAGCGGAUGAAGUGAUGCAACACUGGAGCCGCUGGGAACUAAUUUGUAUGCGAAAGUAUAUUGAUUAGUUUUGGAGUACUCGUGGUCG;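 note: selection with 25 µg/mL kanamycin versus none on LB agar overnight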
- Measurement context: 30 °C
Assay readout: self-splicing fitness (ln)

>>> df
         sequence_chain  endpoint_value
0  UUCUAGCAAUAUUACGUCGA           -1.02
1  CUGAAGCAAUAUUACGCCGG           -1.86
2  AAACAGCAAUAUUACGGGCC           -3.42
3  GGGAAGCAAUAUUACGUUAC           -2.75
4  GGCGAGCAAUAUUACGGGGG           -3.33
5  UAGCAGCAAUAUUACGUUAU           -3.74
6  UGACAGCAAUAUUACGACGG          -0.284
7  UACUAGCAAUAUUACGACUC            -1.8
8  CUUCAGCAAUAUUACGGUCA            -2.2
